Protocol details: in vivo
Test conditions: rat, iv, 0.1 mg/kg
Recorded endpoint: AUC (ng·h/mL)

// known answers, use as guide
Structure string | Reported measurement
CC(C)CN(C(=O)c1nc2ccccc2n1C)[C@@H]1CNC[C@H](C(=O)N2CCOCC2)C1 | 43.9
COCCCCn1c(C(=O)N(CC(C)C)[C@@H]2CNC[C@H](C(=O)N3CCOCC3)C2)ccc1-c1ccccc1 | 34.6
CC(C)CN(C(=O)c1nc2ccccc2[nH]1)[C@@H]1CNC[C@H](C(=O)N2CCOCC2)C1 | 50.7
CCn1c(C(=O)N(CC(C)C)[C@@H]2CNC[C@H](C(=O)N3CCOCC3)C2)nc2ccccc21 | 43.4

P = CCCCCCc1nc(C(C)(C)C)ncc1C(=O)N(CC(C)C)[C@@H]1CNC[C@H](C(=O)N2CCOCC2)C1
Q = COCCCNc1nc(C(C)(C)C)ncc1C(=O)N(CC(C)C)[C@@H]1CNC[C@H](C(=O)N2CCOCC2)C1
Q) Consider P and Q . Which of these has its AUC at a higher number? Label of pick, please.
A) P

A = COCCCCc1c(C(=O)N(CC(C)C)[C@@H]2CNC[C@H](C(=O)N3CCOCC3)C2)ncn1-c1ccccc1
B = COCCCCc1c(C(=O)N(CC(C)C)[C@@H]2CNC[C@H](C(=O)N3CCOCC3)C2)nc2ccccn12
Q) Of A versus B , which is the one with smaller reported AUC? Reply briefly: the label of your chosen item.
A) A

a = COCCCCc1c(C(=O)N(CC(C)C)[C@@H]2CNC[C@H](C(=O)N3CCOCC3)C2)nnn1-c1ccccc1
b = COCCCCn1c(C(=O)N(CC(C)C)[C@@H]2CNC[C@H](CO)C2)nc2ccccc21
Q) Response body: label of entry with the larger AUC; valid values a , b . In your reply, give the label of the chosen option.
A) b

---

Protocol details: Clearance in cynomolgus monkey at 0.1 mg/kg, iv or 1 mg/kg, po administered as cassette dose by LC-MS/MS analysis
Type: ADME, organism-based, Macaca fascicularis
Test conditions: in vivo
Recorded endpoint: clearance (mL/min/kg)

1 = COCCCCn1c(C(=O)N(CC(C)C)[C@@H]2CNC[C@H](C(=O)N3CCOCC3)C2)nc2ccccc21
2 = COCCCOc1cc(C[C@@H](C[C@H](N)[C@@H](O)C[C@H](C(=O)NCC(C)(C)C(N)=O)C(C)C)C(C)C)ccc1OC
Q) Field: entry with larger clearance (options 1 / 2 ). Field: selected label. Fill in the label of the entry you choose.
A) 1
(1: 14.2 mL/min/kg, 2: 3.37 mL/min/kg)

---

Protocol details: in vitro
Test conditions: PAMPA, pH 7.4
Description: Permeability of the compound at pH 7.4 buffer after 3 hrs by PAMPA
Recorded endpoint: Papp at 3 h (×10⁻⁶ cm/s)

Please review the entries below; each comes with its answer.
Structure string | Papp at 3 h, ×10⁻⁶ cm/s
CC(C)CN(C(=O)c1nc2ccccc2[nH]1)[C@@H]1CNC[C@H](C(=O)N2CCOCC2)C1 | 6
COCCCCn1c(C(=O)N(CC(C)C)[C@@H]2CNC[C@H](C(=O)N3CCOCC3)C2)cnc1-c1ccccc1 | 7.2

A = COCCCCc1c(C(=O)N(CC(C)C)[C@@H]2CNC[C@H](C(=O)N3CCOCC3)C2)nc2ccccn12
B = CCCCCNc1nc(C(C)(C)C)ncc1C(=O)N(CC(C)C)[C@@H]1CNC[C@H](C(=O)N2CCOCC2)C1
Q) Quick check, higher Papp at 3 h between A and B ? Selection: enter the item's label.
A) B
